Source: the supplement of paper PMC10307832

System: LOU-NH91
assay_method_text: relative viability (nuclei count vs DMSO), 5 days (fraction); higher = more cells survive
reported_conditions: first compound 6.325 µM
parameter_measured: relative viability
Give your answer as a number; write no unit.

Recall and state the measured relative viability for COCC1(CO)C(=O)C2CCN1CC2 (centres undefined) [PRIMA-1MET] + CC(C)C[C@H](NC(=O)[C@H](Cc1ccccc1)NC(=O)c1cnccn1)B(O)O [Bortezomib] (partner 0.002 µM) .
0.423

Recall and state the measured relative viability for COCC1(CO)C(=O)C2CCN1CC2 (centres undefined) [PRIMA-1MET] + CS(=O)(=O)N1CCN(Cc2cc3nc(-c4cccc5[nH]ncc45)nc(N4CCOCC4)c3s2)CC1 [Pictilisib] (partner 1 µM) .
0.467

Recall and state the measured relative viability for COCC1(CO)C(=O)C2CCN1CC2 (centres undefined) [PRIMA-1MET] + CS(=O)(=O)CCNCc1ccc(-c2ccc3ncnc(Nc4ccc(OCc5cccc(F)c5)c(Cl)c4)c3c2)o1 [Lapatinib] (partner 2 µM) .
0.692

Recall and state the measured relative viability for COCC1(CO)C(=O)C2CCN1CC2 (centres undefined) [PRIMA-1MET] + C[C@@H](Oc1cc(-c2cnn(C3CCNCC3)c2)cnc1N)c1c(Cl)ccc(F)c1Cl [Crizotinib] (partner 1 µM) .
0.773
